- SUBJECT OF TEST: T1, Recombinant human TfR1, His6-tagged (a.a. 89-760) (human, UniProt P02786 89-760)
- T1 construct: range 89-760; captured and coupled on an NTA chip for SPR; also called transferrin receptor 1; CD71
- ASSAY DETAILS: SPR, TfR1 on chip
Starred links: 1 amine or outer side, 2 acyl side, 3 side chain; linkers in the order of their positions; H or OH if unused. Positions of bridges follow the written chain, without caps; N, C: chain ends. Non-standard residues stand in square brackets, D forms with d. No end group written: not given here. TATB = O=C(C[*:1])N1CN(C(=O)C[*:2])CN(C(=O)C[*:3])C1; tBuAla = CC(C)(C)C[C@H](N)C(=O)O; Tle = CC(C)(C)[C@H](N)C(=O)O; Aib = CC(C)(N)C(=O)O
I'd be grateful if you could share measured Kd for these entries.

Reported Kd ( ACS[Aib]DAHLGC[Tle]SYCA (linker 2-10-14 via TATB) [BCY16753] ) = 0.012 µM

Reported Kd ( ACSPDAYLGC[tBuAla]SYCA (linker 2-10-14 via TATB) [BCY16558] ) = 20 µM

Reported Kd ( IDSNCPNDAHLGCISYCA (linker 5-13-17 via TATB (inferred)) [BCY17118] ) = 0.12 µM
